SYSTEM NAME: T1, Human CD93 recombinant protein (Sino Biological Inc, Catalog #12589-H08H) (human, UniProt Q9NPY3 22-580)
T1 construct: Biotinylated (EZ-LINK NHS-PEG4 biotin) in the BLI assays; also called hCD93; His-tagged human CD93
T1 sequence (looked up): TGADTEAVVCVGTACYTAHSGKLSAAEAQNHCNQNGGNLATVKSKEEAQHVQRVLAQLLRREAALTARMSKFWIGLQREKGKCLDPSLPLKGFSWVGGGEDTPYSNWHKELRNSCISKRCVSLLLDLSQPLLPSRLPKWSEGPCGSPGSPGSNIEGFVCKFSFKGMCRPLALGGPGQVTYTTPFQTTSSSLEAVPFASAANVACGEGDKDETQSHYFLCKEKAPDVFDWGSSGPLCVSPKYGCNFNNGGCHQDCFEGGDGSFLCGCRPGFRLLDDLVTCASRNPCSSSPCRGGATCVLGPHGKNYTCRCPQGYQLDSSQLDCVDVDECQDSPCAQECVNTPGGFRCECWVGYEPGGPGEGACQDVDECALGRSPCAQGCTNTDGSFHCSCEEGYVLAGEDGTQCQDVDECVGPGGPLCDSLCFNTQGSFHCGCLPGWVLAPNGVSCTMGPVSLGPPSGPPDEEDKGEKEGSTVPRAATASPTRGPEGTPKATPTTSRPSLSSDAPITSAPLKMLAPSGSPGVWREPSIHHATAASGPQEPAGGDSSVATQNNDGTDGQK
PROTOCOL TEXT: BLI (Octet QKe), biotinylated human CD93 on streptavidin biosensors

BINDER	binding result
20C7 (antibody, V domains shown, Mouse hybridoma monoclonal antibody) VH: EVQLQQSGPELVNPGASVKMSCKASGYTFTAYVMHWVKQKPGQGLEWIGYIFPYNDGTEYNEKFKGKATLTSDKSSSTAYMELSSLTSEDSAVYYCARRTDGNPYTMDYWGQGTSVTVSS VL: DIVMTQSHKFMSTSVGDRVSITCKASQDVSTAVAWYQQKPGQSPKLLIHSASYRYTGVPDRFTGRGSGTDFTFTISSVQAEDLAVYYCQQHYSTPFTFGSGTKLEIK	binds
5H9 (antibody, IgG2a, V domains shown, also called 5H9 mIgG2a) VH: QVQLQQSGPDLVKPGASVKISCKASGYAFSTYWMNWVKQRPGKGLEWIGRIFPGDGDANYNGKFKGKATLTADKSSSTAYMQLSSLTSEDSAVYFCTRTGAAYDFDPFPYWGQGTLVTVSA VL: DIVMTQAAFSNPVTLGTSASISCSSSKSLLHSNGVTYLYWYLQRPGQSPQLLIYRMSNLASGVPDRFSGSGSGTDFTLRISRVEAEDVGIYYCAQMLERPFTFGSGTKLEIK	binds
17A7 (antibody, V domains shown, Mouse hybridoma monoclonal antibody) VH: QVQLQQSGPELVKPGASVKISCKGSGYAFSTYWMNWVKQRPGKGLEWIGRIFPGDGDTDYDGKFKGKATLTADKSSNTAYMQLSSLTSEDSAVYFCARTGAAYEFDPFPYWGQGTLVTVSA VL: DIVMTQAAFSNPVTLGTSASISCSSTKSLLHSSGITYLYWYLQRPGQSPQLLIYRMSNLASGVPDRFSGSGSGTDFTLRISRVEAEDVGVYYCAQMLERPFTFGSGTKLEIK	binds
